Consider the following compounds; for each one, report its pEC50.
# SYSTEM UNDER TEST: human adenosine A2B receptor (Homo sapiens (Human), UniProt P29275)
# Sequence (P29275 whole entry): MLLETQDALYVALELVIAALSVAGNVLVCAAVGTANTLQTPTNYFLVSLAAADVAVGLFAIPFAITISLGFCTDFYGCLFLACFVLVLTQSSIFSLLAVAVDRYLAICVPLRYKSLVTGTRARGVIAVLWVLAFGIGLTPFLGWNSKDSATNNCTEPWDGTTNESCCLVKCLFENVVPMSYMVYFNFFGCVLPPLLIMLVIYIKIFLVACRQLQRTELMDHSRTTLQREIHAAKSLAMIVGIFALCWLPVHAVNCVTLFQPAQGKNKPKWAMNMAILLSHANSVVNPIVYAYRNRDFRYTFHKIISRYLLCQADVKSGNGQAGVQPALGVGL
# ASSAY TEXT: Adenosine A2B Receptor Cyclic AMP GS Assay
# EXPERIMENTAL SETUP: HEK-293 cells expressing human A2B receptor, agonist NECA 12 nM, cAMP accumulation; read-out: A2B_cAMP_EC50
pEC50: −log10 of the molar value.

Item: N#Cc1cccc(-c2cc3nc(CN4CCCC4=O)nn3c(N)n2)c1 | pEC50: 6.00 to 7.00

Item: N#Cc1cccc(-c2cc3nc(Cc4c(F)cccc4CN[C@@H]4CCOC4=O)nn3c(N)n2)c1F | pEC50: > 8.00

Item: CCN(Cc1cccc(F)c1Cc1nc2cc(-c3cccc(C#N)c3F)nc(N)n2n1)C1CCN(CC(=O)O)C1=O (stereo not shown) | pEC50: > 8.00

Item: N#Cc1cccc(-c2nc(N)n3nc(C(O)c4c(F)cccc4F)nc3c2C#N)c1F (stereo not shown) | pEC50: > 8.00

====

Consider the following molecules; for each one, report its EC50.
# SYSTEM UNDER TEST: human adenosine A2B receptor (Homo sapiens (Human), UniProt P29275)
# ASSAY TEXT: Adenosine A2B Receptor Cyclic AMP GS Assay
# EXPERIMENTAL SETUP: HEK-293 cells expressing human A2B receptor, agonist NECA 12 nM, cAMP accumulation; read-out: A2B_cAMP_EC50

Item: CN1CCC2(CN(Cc3cccc(F)c3C(O)c3nc4cc(-c5cccc(C#N)c5F)nc(N)n4n3)C2)C1=O (stereo not shown) | EC50: 10 to 100 nM

Item: CN1CCC2(CN(Cc3cccc(F)c3Cc3nc4cc(-c5cccc(C#N)c5F)nc(N)n4n3)C2)C1=O | EC50: 10 to 100 nM

Item: N#Cc1cccc(-c2cc3nc(NCc4cccc(-c5cnn(CCN6CCOCC6)c5)n4)nn3c(N)n2)c1F | EC50: 10 to 100 nM

Item: N#Cc1cccc(-c2cc3nc(Cc4ccccc4)nn3c(N)n2)c1 | EC50: < 10 nM

====

# SYSTEM UNDER TEST: UniProt P29275
# ASSAY TEXT: Adenosine A2B Receptor Cyclic AMP GS Assay
# EXPERIMENTAL SETUP: HEK-293 cells expressing human A2B receptor, agonist NECA 12 nM, cAMP accumulation; read-out: A2B_cAMP_EC50
pEC50: −log10 of the molar value.
READOUT NAME: pEC50

Item: N#Cc1cccc(-c2cc3nc(C(O)c4c(F)cccc4F)nn3c(N)n2)c1F (stereo not drawn) | pEC50: > 8.00

Item: N#Cc1cccc(-c2cc3nc(C(O)c4ccccc4)nn3c(N)n2)c1 (stereo not drawn) | pEC50: > 8.00

Item: CCN(Cc1cccc(F)c1Cc1nc2cc(-c3cccc(C#N)c3F)nc(N)n2n1)C1CCN(C)C1=O (stereo not drawn) | pEC50: > 8.00

Item: N#Cc1cccc(-c2cc3nc(NCc4cccc(-c5cnn(C6CCNCC6)c5)n4)nn3c(N)n2)c1F | pEC50: > 8.00

Item: CCN(Cc1cccc(F)c1Cc1nc2cc(-c3cccc(C#N)c3F)nc(N)n2n1)[C@@H]1CCNC1=O | pEC50: 7.00 to 8.00

Item: N#Cc1cccc(-c2cc3nc(Cc4c(F)cccc4CN[C@H]4CCNC4=O)nn3c(N)n2)c1F | pEC50: > 8.00

Item: N#Cc1cccc(-c2cc3nc(C(N)c4ccccc4)nn3c(N)n2)c1 (stereo not drawn) | pEC50: 6.00 to 7.00

Item: CC(=O)N[C@H]1CCN(Cc2cccc(F)c2Cc2nc3cc(-c4cccc(C#N)c4F)nc(N)n3n2)C1 | pEC50: 7.00 to 8.00

Item: N#Cc1cccc(-c2cc3nc(Cc4c(F)cccc4CN4CCC(c5nn[nH]n5)C4)nn3c(N)n2)c1F (stereo not drawn) | pEC50: 7.00 to 8.00

====

# SYSTEM UNDER TEST: human adenosine A2B receptor (Homo sapiens (Human), UniProt P29275)
# ASSAY TEXT: Adenosine A2B Receptor Cyclic AMP GS Assay
# EXPERIMENTAL SETUP: HEK-293 cells expressing human A2B receptor, agonist NECA 12 nM, cAMP accumulation; read-out: A2B_cAMP_EC50
pEC50: −log10 of the molar value.
Consider the following molecules; for each one, report its pEC50.

// pEC50 (human adenosine A2B receptor (Homo sapiens (Human), UniProt P29275)) for N#Cc1cccc(-c2cc3nc(Cc4c(F)cccc4CNC4CCN(CC(=O)O)C4=O)nn3c(N)n2)c1F (centres unmarked) [Example 19] = 7.00 to 8.00

// pEC50 (human adenosine A2B receptor (Homo sapiens (Human), UniProt P29275)) for N#Cc1cccc(-c2nc(N)n3nc(Cc4ccccc4)nc3c2CO)c1 [Example 9] = 7.00 to 8.00

// pEC50 (human adenosine A2B receptor (Homo sapiens (Human), UniProt P29275)) for CCNC(=O)c1nc2cc(-c3cccc(C#N)c3)nc(N)n2n1 [Example 12] = < 6.00

// pEC50 (human adenosine A2B receptor (Homo sapiens (Human), UniProt P29275)) for N#Cc1cccc(-c2cc3nc(Nc4ccccc4)nn3c(N)n2)c1 [Example 10] = 6.00 to 7.00

// pEC50 (human adenosine A2B receptor (Homo sapiens (Human), UniProt P29275)) for Cn1ccnc1Cc1nc2cc(-c3cccc(C#N)c3)nc(N)n2n1 [Example 7] = 7.00 to 8.00

// pEC50 (human adenosine A2B receptor (Homo sapiens (Human), UniProt P29275)) for CCN(Cc1cccc(F)c1C(O)c1nc2cc(-c3cccc(C#N)c3F)nc(N)n2n1)[C@H]1CCNC1=O (some centres unmarked) [Example 18] = > 8.00

// pEC50 (human adenosine A2B receptor (Homo sapiens (Human), UniProt P29275)) for N#Cc1cccc(-c2cc3nc(Cc4c(F)cccc4CN[C@@H]4CCNC4=O)nn3c(N)n2)c1F [Example 21] = > 8.00

// pEC50 (human adenosine A2B receptor (Homo sapiens (Human), UniProt P29275)) for Cc1c(C#N)cccc1-c1cc2nc(C(O)c3c(F)cccc3F)nn2c(N)n1 (centres unmarked) [Example 13] = 7.00 to 8.00

// pEC50 (human adenosine A2B receptor (Homo sapiens (Human), UniProt P29275)) for N#Cc1cccc(-c2cc3nc(Cc4ccccn4)nn3c(N)n2)c1 [Example 3] = > 8.00

// pEC50 (human adenosine A2B receptor (Homo sapiens (Human), UniProt P29275)) for N#Cc1cccc(-c2cc3nc(Cc4c(F)cccc4CN4CCC[C@H]4c4nn[nH]n4)nn3c(N)n2)c1F [Example 26] = > 8.00

// pEC50 (human adenosine A2B receptor (Homo sapiens (Human), UniProt P29275)) for N#Cc1cccc(-c2cc3nc(Cc4ccccc4)cn3c(N)n2)c1 [Example 11] = 7.00 to 8.00

// pEC50 (human adenosine A2B receptor (Homo sapiens (Human), UniProt P29275)) for CN1CCC(NCc2cccc(F)c2Cc2nc3cc(-c4cccc(C#N)c4F)nc(N)n3n2)C1=O (centres unmarked) [Example 29] = 7.00 to 8.00

// pEC50 (human adenosine A2B receptor (Homo sapiens (Human), UniProt P29275)) for Cn1cc(-c2cccc(Cc3nc4cc(-c5cccc(C#N)c5)nc(N)n4n3)c2)cn1 [Example 5] = 6.00 to 7.00

// pEC50 (human adenosine A2B receptor (Homo sapiens (Human), UniProt P29275)) for N#Cc1cccc(-c2cc3nc(Cc4c(F)cccc4CN4CC[C@H](C#N)C4)nn3c(N)n2)c1F [Example 27] = 7.00 to 8.00

// pEC50 (human adenosine A2B receptor (Homo sapiens (Human), UniProt P29275)) for CCN1CCC(NCc2cccc(F)c2Cc2nc3cc(-c4cccc(C#N)c4F)nc(N)n3n2)C1=O (centres unmarked) [Example 24] = 7.00 to 8.00

// pEC50 (human adenosine A2B receptor (Homo sapiens (Human), UniProt P29275)) for CN1CCC(NCc2cccc(F)c2C(O)c2nc3cc(-c4cccc(C#N)c4F)nc(N)n3n2)C1=O (single isomer, unassigned) [Example 16] = 7.00 to 8.00

// pEC50 (human adenosine A2B receptor (Homo sapiens (Human), UniProt P29275)) for N#Cc1cccc(-c2cc3nc(CC4CCCCC4)nn3c(N)n2)c1 [Example 4] = 6.00 to 7.00

The measured values listed here are drawn from patent US11168089B2.
